Assign pIC50 to each entry below.
Biological target: Recombinant human c-Met Fc chimera (human) (UniProt P08581)
Experiment: HGF competition on coated c-Met Fc chimera, competitor biotinylated HGF
Numbers only, as −log10 of the molar value.

Please state pIC50 for every binder in the list that follows.
1. P114AR5P75-E9 (designed binder, not shown: small tags and cut ends) LPAPKNLVVSRVTEDSARLSWTAPDAAFDSFFIRYDEFLRSGEAIVLTVPGSERSYDLTGLKPGTEYWVTILGVKGGLVSTPLSAIFTT
2. P114AR7P93-G8 (designed binder, not shown: small tags and cut ends) LPAPKNLVVSRVTEDSARLSWTAPDAAFDSFWIRYFEFLGSGEAIVLTVPGSERSYDLTDLKPGTEYGVTINGVKGGRVSTPLSAIFTT
3. P114AR7P92-F6 (designed binder, not shown: small tags and cut ends) LPAPKNLVVSRVTEDSARLSWTAPDAAFDSFWIRYFEFLGSGEAIVLTVPGSERSYDLTGLKPGTEYVVNILGVKGGGLSVPLSAIFTT
4. P114AR7P92-G8 (designed binder, not shown: small tags and cut ends) LPAPKNLVVSRVTEDSARLSWTAPDAAFDSFVIRYFEFLGSGEAIVLTVPGSERSYDLTGLKPGTEYVVQILGVKGGYISIPLSAIFTT

Solution:
1. 7.28
2. 9.00
3. 8.66
4. 8.80
